B1: TPR t1 (parent)
chain: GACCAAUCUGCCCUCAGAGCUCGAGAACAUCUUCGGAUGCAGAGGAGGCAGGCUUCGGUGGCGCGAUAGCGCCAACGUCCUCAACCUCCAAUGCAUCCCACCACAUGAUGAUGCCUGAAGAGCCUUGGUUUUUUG

variants of: B1; assay: polymerase ribozyme fitness, log enrichment relative to wild type (log ratio); higher = more active; in vitro selection for triplet polymerase activity
Hi all, reminder that labels come from polymerase ribozyme fitness (log ratio), split as group A (below -4), group B (-4 to below -2), group C (-2 or more)

For C15G C85U , which polymerase ribozyme fitness (log ratio) bin applies?
group B

Would you mind doing C13A A75U U125A as well?
group B

Would you mind doing C13U G52C C94G A100U G113A as well?
group B

Would you mind doing G45A C70G G110C as well?
group A

Would you mind doing G47C G58A as well?
group C

Would you mind doing C8U C94A as well?
group C

Would you mind doing C79U C82A as well?
group C
